Values were extracted from ChEMBL document CHEMBL3507680.

# assay-protocol: Human HepG2 cell viability assay in 384 well format
# Assay type: toxicity, cell-based
# Parameters: dose 125 nL, time 70.5 hour; concentration not given beside the values
# condition-info: HepG2 cells, read-out: Inhibition
parameter-measured: cytotoxicity at 70.5 h

For CC(C)c1nc(CNC2CCN(S(C)(=O)=O)CC2)cs1 , what is its reported cytotoxicity at 70.5 h? 20.3%

Similarly, COCCc1noc(CN2CCCC2Cn2nc(C)cc2C)n1 (stereo not drawn) ? 1.57%

Similarly, Cn1ccc(C(=O)N2CCCCC23CC(=O)N(Cc2ccccc2)C3)n1 (stereo not drawn) ? 1.38%

Similarly, Cc1ccc(-n2cc(CN3CCN(C)[C@@H]4CS(=O)(=O)C[C@@H]43)cn2)cc1 ? -5.8%

Similarly, O=S(=O)(NCC1(O)CCOCC1)c1ccccc1Br ? -0.33%

Similarly, CC(C)c1nnc2n1CC(CNCc1nc3ccccc3o1)CC2 (stereo not drawn) ? 2.4%

Similarly, CC(C)C(CNCc1cccc2c1OCO2)N1CCOCC1 (stereo not drawn) ? 3.33%

Similarly, Cc1nc(C)c2c(n1)CCN(C(=O)CC1CC1)CC2 ? -6.2%

Similarly, Cc1cc2nc(C(C)C)cc(N3CCC(Oc4ncccn4)CC3)n2n1 ? 48.7%

Similarly, Cc1ncc(CO)c(CN2CCCC2c2nc3c(C)cccc3[nH]2)c1O (stereo not drawn) ? -0.268%

Similarly, CC(C)CC(=O)N1CCN(C(=O)N(C)C)CC2(CC(=O)N(C)C2)C1 (stereo not drawn) ? 0.114%

Similarly, Cc1cccc(C(=O)N2CCC[C@]3(C[C@@H](OCC4CC4)CO3)C2)n1 ? -13.9%

Similarly, Cc1ccc(-c2noc(Cn3nc(C(N)=O)ccc3=O)n2)cc1 ? -8.12%

Similarly, CCCC(C)CN1CCC(n2cc(C3CCCC3)nn2)CC1 (stereo not drawn) ? -6.08%

Similarly, O=C(NCC1CCC2(CCNCC2)CO1)c1ccno1 (stereo not drawn) ? 3.09%

Similarly, CC(NCc1c(C(C)C)nn(C)c1N(C)C)C(=O)NC1CCCC1 (stereo not drawn) ? -6.36%

Similarly, Cc1cc(C)c2c(c1)NC(=O)C2CC(=O)O (stereo not drawn) ? -4.36%

Similarly, O=C(NCCN1CCCC(CO)C1)c1ccc2sccc2c1 (stereo not drawn) ? -6.22%

Similarly, Cc1cc(C(F)(F)F)nn1C(C)C(=O)Nc1ccncc1 (stereo not drawn) ? 23.9%

Similarly, O=C(NC[C@H]1Cn2c(-c3ccccc3)cnc2CO1)C1CC1 ? -7.19%

Similarly, Cc1cccc(-c2nccnc2C2CCCN(C)C2)c1 (stereo not drawn) ? -2.49%

Similarly, CNS(=O)(=O)c1ccc(CN(C)Cc2nc3ccc(F)cc3[nH]2)cc1 ? -4.95%

Similarly, CC(C)NC(=O)CC(C)NCc1ccc(F)cc1Cl (stereo not drawn) ? -3.7%

Similarly, Cn1cc(N2CC3(CCN(Cc4nccn4C)C3)CC2=O)cn1 (stereo not drawn) ? -12.4%

Similarly, Cc1cc(C)n(C2CCCN(C(=O)Cc3cccs3)C2)n1 (stereo not drawn) ? 11%

Similarly, CCn1cc(C(=O)N2CCCC(c3noc(C)n3)C2)cn1 (stereo not drawn) ? -2.74%

Similarly, CCCOc1ccc(C(=O)Oc2cc(=O)n3cccc(C)c3n2)cc1 ? -0.525%

Similarly, CS(=O)(=O)NCc1ncn2c1CN(C(=O)C1CCCO1)CCC2 (stereo not drawn) ? 0.98%

Similarly, CSCC(C)N(C)C(=O)CN1CCN(c2ccccn2)CC1 (stereo not drawn) ? 17.8%

Similarly, Cc1cnc(N2CCOCC3(CCN(c4ccccn4)C3)C2)nc1 (stereo not drawn) ? -9.64%

Similarly, COC[C@]1(O)CCN(C2CCN(c3ccc(F)c(F)c3)CC2)CC1(C)C ? 22.6%

Similarly, CN(C)C(=O)CN(C)C(=O)c1cnc(Cc2ccc(F)cc2)s1 ? -0.843%

Similarly, CC(=O)N1CCC(c2cncc(Cl)n2)CC1 ? 2.82%

Similarly, CCn1ncnc1C(C)NC(=O)Cc1cc2c(cc1Cl)OCCO2 (stereo not drawn) ? 1.43%

Similarly, Cn1cnc2c1C(COCC1CC1)CN(Cc1ccsc1)C2 (stereo not drawn) ? 5.05%

Similarly, CC(=O)N1N=C(c2ccco2)OC1C(=O)NCCc1ccc(F)cc1 (stereo not drawn) ? 0.102%

Similarly, CN(C)CCN(C)C(=O)Cn1cccc2cc(-c3ccc(F)cc3)nc1-2 ? 4.32%

Similarly, CSCCCNc1ncnc2cccc(F)c12 ? 23.2%

Similarly, c1cnc(N2C[C@H]3CCC[C@@H](CN4CCCC4)[C@H]3C2)nc1 ? 22.9%

Similarly, COc1ccc(C(=O)C2CCCN(Cc3ccncc3)C2)c(OC)c1 (stereo not drawn) ? -9.3%

Similarly, Cn1cc(CNC(=O)Nc2ccc(S(=O)(=O)C(F)F)cc2)cn1 ? 0.531%

Similarly, Cc1nc(C)n(CC2CN(CC(=O)Nc3cccnc3)CCO2)n1 (stereo not drawn) ? -2.68%

Similarly, Cc1ncn(CCNC(=O)Nc2ccccc2)c(=O)c1C ? 21.4%

Similarly, CCO[C@@H]1CC[C@H]2[C@H]1OCCN2Cc1ccc(F)cc1 ? -16.2%

Similarly, COc1cc(C)sc1C(=O)NCCC(=O)N(C)c1ccccc1 ? -2.86%

Similarly, COc1cc(N2CC3(CCN(c4ncccn4)C3)C2)ncn1 ? -9.27%

Similarly, COc1ccc(NC(C)C(=O)NCCc2cccs2)cc1F (stereo not drawn) ? 9.05%

Similarly, CC(=O)NCc1nnc2n1CCN(Cc1cccs1)C2 ? -11.7%
